Test system: rice
Procedure summary: Test C flooded paddy test
Type: in vivo, Oryza sativa
Condition set: Flood, 62 g ai/ha; scale of 0 to 100 where 0 is no effect and 100 is complete control; 13 to 15 days
Would you mind telling me the reported Plant response rating, Rice of each entry?
Lab note: write the figure by itself, no unit.

For record O=C1NCC(c2ccc(Cl)c(F)c2)C1C(=O)Nc1cccc(F)c1F (stereo not shown) [Compound 52] the listed Plant response rating, Rice is 10

Note to self: Plant response rating, Rice recorded for O=C1NCC(c2ccc(Cl)c(Cl)c2)C1C(=O)Nc1ccccc1F (racemic) [Compound 14] was 0

What the record says about O=C1NCC(c2ccc(F)c(F)c2)C1C(=O)Nc1cccc(Cl)c1 (racemic) [Compound 18] : Plant response rating, Rice is 0

Lab note: measured Plant response rating, Rice of O=C1NCC(c2ccc(Cl)c(Cl)c2)C1C(=O)Nc1cccc(F)c1F (racemic) [Compound 25] was 0
